Test system: FaDu
measurementDescription: Growth inhibition of human squamous cell carcinoma FaDu in culture
Type: functional
assaySetup: read-out: ED50 (the source's name)
pEC50: −log10 of the molar value.

- molecule: "CN(Cc1coc2nc(N)nc(N)c12)c1ccc(C(=O)N[C@@H](CCC(=O)O)C(=O)O)cc1 [FURO[2,3D]PYRIMIDINE ANTIFOLATE]"
  pEC50: 7.26

----------
Test system: carcinoma cell line
measurementDescription: Tested for their inhibition of growth of FaDu head on carcinoma cell lines.
Type: functional, cell-based
assaySetup: Homo sapiens
measuredMetric: IC50

- smilesCode: "Cc1nc(N)nc2c1c(CCc1ccc(C(=O)N[C@@H](CCC(=O)O)C(=O)O)cc1)cn2Cc1ccccc1"
  testedSystem: "carcinoma cell line"
  measuredMetric: "IC50"
  value: "> 20 µM"
